molecular target: αvβ3 (vitronectin receptor) (Homo sapiens, UniProt P05106+P06756); construct: Human placenta or human platelet αvβ3 (0.1-0.3 mg/mL) in buffer T; from tissue; host or cells: human placenta or human platelets; experiment: Solid-phase [3H]-SK&F-107260 binding to αvβ3 (inhibition of vitronectin binding)
Sequence (P06756 31-889 limits assumed): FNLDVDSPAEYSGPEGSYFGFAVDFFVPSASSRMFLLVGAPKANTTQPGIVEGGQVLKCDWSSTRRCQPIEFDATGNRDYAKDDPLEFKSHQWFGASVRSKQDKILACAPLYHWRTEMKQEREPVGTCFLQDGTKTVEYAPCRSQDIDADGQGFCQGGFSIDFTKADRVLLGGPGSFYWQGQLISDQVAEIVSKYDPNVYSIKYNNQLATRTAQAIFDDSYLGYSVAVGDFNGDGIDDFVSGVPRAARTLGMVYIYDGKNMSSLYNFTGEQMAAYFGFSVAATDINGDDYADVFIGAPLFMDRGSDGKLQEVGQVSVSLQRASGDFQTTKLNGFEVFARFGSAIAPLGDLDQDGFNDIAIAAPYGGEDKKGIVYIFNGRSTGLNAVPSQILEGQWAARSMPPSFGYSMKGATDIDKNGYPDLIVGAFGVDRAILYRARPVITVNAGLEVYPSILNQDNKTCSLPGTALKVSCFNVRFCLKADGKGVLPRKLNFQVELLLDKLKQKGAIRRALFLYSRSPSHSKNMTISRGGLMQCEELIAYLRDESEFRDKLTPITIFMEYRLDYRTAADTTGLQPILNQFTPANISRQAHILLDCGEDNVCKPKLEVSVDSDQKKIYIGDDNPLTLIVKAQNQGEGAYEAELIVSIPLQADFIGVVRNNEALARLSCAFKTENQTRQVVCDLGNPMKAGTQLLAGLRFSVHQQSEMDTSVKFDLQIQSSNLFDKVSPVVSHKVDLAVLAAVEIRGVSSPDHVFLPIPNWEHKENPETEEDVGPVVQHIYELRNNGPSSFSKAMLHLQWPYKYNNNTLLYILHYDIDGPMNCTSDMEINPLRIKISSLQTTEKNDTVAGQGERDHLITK
Sequence (P06756 891-1048 partner limits assumed): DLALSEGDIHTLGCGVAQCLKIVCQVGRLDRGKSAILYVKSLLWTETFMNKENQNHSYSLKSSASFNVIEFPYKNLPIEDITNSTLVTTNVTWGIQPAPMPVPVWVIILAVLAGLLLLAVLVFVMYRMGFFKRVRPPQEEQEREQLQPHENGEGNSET
Sequence (P05106 27-788): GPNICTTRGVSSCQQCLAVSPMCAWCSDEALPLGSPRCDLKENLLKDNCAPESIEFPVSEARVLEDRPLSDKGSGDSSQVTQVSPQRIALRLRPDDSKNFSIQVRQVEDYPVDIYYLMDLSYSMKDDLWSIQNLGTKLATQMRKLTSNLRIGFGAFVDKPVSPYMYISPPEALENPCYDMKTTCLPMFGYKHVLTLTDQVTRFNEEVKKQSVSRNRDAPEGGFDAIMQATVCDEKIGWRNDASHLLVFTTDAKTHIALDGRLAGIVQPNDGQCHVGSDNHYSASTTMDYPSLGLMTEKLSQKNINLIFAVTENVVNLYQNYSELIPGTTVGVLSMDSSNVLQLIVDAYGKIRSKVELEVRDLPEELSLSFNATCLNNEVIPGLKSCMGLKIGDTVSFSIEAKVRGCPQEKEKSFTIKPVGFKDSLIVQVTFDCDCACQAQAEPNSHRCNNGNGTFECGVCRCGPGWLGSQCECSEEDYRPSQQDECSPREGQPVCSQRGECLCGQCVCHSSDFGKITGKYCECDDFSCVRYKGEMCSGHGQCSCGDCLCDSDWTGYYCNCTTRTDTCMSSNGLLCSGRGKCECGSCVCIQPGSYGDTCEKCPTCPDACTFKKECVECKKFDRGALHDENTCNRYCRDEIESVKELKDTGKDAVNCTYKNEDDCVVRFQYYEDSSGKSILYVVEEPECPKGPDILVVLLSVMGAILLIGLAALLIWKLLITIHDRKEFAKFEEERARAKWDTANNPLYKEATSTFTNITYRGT
endpoint-label: Ki (µM)
Answers are plain numbers, in µM.

Q: Consider the molecule CN1Cc2cc(C(=O)NCc3cccnc3)ccc2NC(CC(=O)O)C1=O (racemic) and give its measured Ki.
A: 9.02

###

For each record, write down the corresponding pKi.
biological target: αvβ3 (vitronectin receptor) (Homo sapiens, UniProt P05106+P06756); construct: Human placenta or human platelet αvβ3 (0.1-0.3 mg/mL) in buffer T; from tissue; host or cells: human placenta or human platelets; test: Solid-phase [3H]-SK&F-107260 binding to αvβ3 (inhibition of vitronectin binding); conditions: read-out: αVβ3
Answers are plain numbers, as −log10 of the molar value.

Before answering, review these 3 worked examples.
{"columns": ["molecule", "pKi"],
 "data": [
  ["CN1Cc2cc(C(=O)N3CCN(Cc4ccccc4)CC3)ccc2NC(CC(=O)O)C1=O (racemic)", 5.02],
  ["CN1Cc2cc(NC(=O)CNc3ccccn3)ccc2CC(CC(=O)O)C1=O (racemic)", 5.89],
  ["CN1Cc2cc(NC(=O)c3ccccn3)ccc2CC(CC(=O)O)C1=O (racemic)", 4.82]
]}

Could you now look at the following molecule, please?
Q: Consider the molecule CN1Cc2cc(NC(=O)OCc3ccccc3)ccc2CC(CC(=O)O)C1=O (racemic) and give its measured pKi.
A: 5.12
